Reported cAMP EC50 by item:
target: human glucagon receptor (human, UniProt P47871 26-477); assay: cell-based or functional assay

# binder, assayReadout, measuredResult
measured = [
    ("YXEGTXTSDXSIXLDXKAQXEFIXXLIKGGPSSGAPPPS (Aib2, αMeF(2F)6, 4Pal10, αMeL13, Orn16, K17(Z), Aib20, D-Glu24, αMeY25, K28(Z), C-terminal NH2; Z = AEEA-(γ-Glu)-(4-(4-tert-butylphenyl)butanoyl)) [Example 208]", "cAMP EC50", "> 9.95 µM"),
    ("YXEGTXTSDXXIXLDXKAQXEFIKXLIEGGPSSGAPPPS (Aib2, αMeF(2F)6, 4Pal10, αMeS11, αMeL13, Orn16, K17(Z), Aib20, K24(Z), αMeY25, C-terminal NH2; Z = AEEA2-(γ-Glu)-CO-(CH2)12-CO2H) [Example 214]", "cAMP EC50", "> 9.95 µM"),
]

Let's switch to this binder now.
Annotate the binder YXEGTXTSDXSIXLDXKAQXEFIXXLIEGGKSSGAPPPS (Aib2, αMeF6, 4Pal10, αMeL13, Orn16, K17(Z), Aib20, D-Glu24, αMeY25, K31(Z), C-terminal NH2; Z = AEEA2-(γ-Glu)-CO-(CH2)10-CH3) [Example 172] with its measured cAMP EC50.
> 9.95 µM

Entry source: patent US20230265151A1
